Attribution: ChEMBL document CHEMBL1255226

biological target: Serine/threonine-protein kinase mTOR (Homo sapiens, UniProt P42345)
pIC50: −log10 of the molar value.
observedProperty: pIC50

entrySmiles | observedProperty | readoutNumber
CC(=O)N1CCN(c2ccc(-n3c(=O)ccc4cnc5ccc(-c6cnc7ccccc7c6)cc5c43)cc2C(F)(F)F)CC1 | pIC50 | 8.27

----------
assay: Cmax in C57BL/6 mouse at 1 mg/kg, iv; type: ADME, organism-based; set-up: dose 1 mg/kg, route intravenous; conditions: in vivo
observedProperty: Cmax (µg/mL)

entrySmiles | readoutNumber
CCC(=O)N1CCN(c2ccc(-n3c(=O)ccc4cnc5ccc(-c6cnc7ccccc7c6)cc5c43)cc2C(F)(F)F)CC1 | 2.76

----------
test: AUC in C57BL/6 mouse at 10 mg/kg, po; assay type: ADME, organism-based; set-up: dose 10 mg/kg, route oral; conditions: plasma

compound | displayUnit | AUC
CCC(=O)N1CCN(c2ccc(-n3c(=O)ccc4cnc5ccc(-c6cnc7ccccc7c6)cc5c43)cc2C(F)(F)F)CC1 [TORIN1] | ng·h/mL | 396

----------
A collection of compounds and their measured pIC50
target: Phosphatidylinositol 4,5-bisphosphate 3-kinase catalytic subunit alpha isoform (Homo sapiens, UniProt P42336, S473D); test: Inhibition of PI3Kalpha in human PC3 cells expressing Akt1 S473D mutant assessed as phosphorylation of Akt Thr308 by immunoblotting
Sequence (P42336 whole entry, looked up, stated change not applied, canonical isoform): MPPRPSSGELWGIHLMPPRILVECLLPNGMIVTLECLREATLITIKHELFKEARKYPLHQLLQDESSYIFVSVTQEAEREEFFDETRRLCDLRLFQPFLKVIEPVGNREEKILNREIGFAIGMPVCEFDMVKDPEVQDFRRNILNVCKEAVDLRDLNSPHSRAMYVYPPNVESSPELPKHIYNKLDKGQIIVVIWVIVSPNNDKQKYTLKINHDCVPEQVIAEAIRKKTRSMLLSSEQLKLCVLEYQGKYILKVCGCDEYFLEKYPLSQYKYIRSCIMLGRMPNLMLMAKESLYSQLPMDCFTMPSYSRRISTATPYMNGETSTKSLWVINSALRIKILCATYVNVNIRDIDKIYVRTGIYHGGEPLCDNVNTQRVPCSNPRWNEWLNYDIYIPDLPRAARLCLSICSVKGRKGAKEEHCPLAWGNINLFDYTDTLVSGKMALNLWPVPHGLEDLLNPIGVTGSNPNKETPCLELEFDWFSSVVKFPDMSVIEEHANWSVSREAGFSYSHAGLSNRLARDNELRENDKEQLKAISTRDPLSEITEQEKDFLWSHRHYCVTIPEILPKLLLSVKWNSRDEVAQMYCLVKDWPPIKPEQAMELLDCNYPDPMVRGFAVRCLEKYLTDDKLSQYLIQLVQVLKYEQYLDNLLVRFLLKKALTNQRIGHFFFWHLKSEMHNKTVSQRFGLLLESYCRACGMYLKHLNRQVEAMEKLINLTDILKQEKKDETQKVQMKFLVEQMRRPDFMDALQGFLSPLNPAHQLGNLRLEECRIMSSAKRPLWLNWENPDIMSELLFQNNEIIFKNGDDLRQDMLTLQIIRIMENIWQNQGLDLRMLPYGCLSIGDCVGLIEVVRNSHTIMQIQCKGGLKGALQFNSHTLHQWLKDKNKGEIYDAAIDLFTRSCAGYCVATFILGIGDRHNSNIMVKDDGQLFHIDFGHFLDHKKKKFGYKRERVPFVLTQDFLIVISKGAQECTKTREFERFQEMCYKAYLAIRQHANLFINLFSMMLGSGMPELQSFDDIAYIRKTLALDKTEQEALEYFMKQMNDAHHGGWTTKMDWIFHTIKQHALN
pIC50: −log10 of the molar value.

entrySmiles | pIC50
CC(=O)N1CCN(c2ccc(-n3c(=O)ccc4cnc5ccc(-c6cnc7ccccc7c6)cc5c43)cc2C(F)(F)F)CC1 | < 6.52
CN(C)CCC(=O)N1CCN(c2ccc(Nc3ccnc4ccc(-c5cnc6ccccc6c5)cc34)cc2C(F)(F)F)CC1 | < 6.52
O=C(O)N1CCN(c2ccc(Nc3ccnc4ccc(-c5cnc6ccccc6c5)cc34)cc2C(F)(F)F)CC1 | < 6.52

----------
Recorded measurements of pIC50, one per entry
biological target: Serine/threonine-protein kinase mTOR (Mus musculus)
pIC50: −log10 of the molar value.
observedProperty: pIC50

entrySmiles | studyTarget | observedProperty | op | readoutNumber
CCC(=O)N1CCN(c2ccc(-n3c(=O)c(C)cc4cnc5ccc(-c6cnc7ccccc7c6)cc5c43)cc2C(F)(F)F)CC1 | Serine/threonine-protein kinase mTOR (Mus musculus) | pIC50 | = | 7.00
CCC(=O)N1CCN(c2ccc(N3C(=O)NCc4cnc5ccc(-c6cnc7ccccc7c6)cc5c43)cc2C(F)(F)F)CC1 | Serine/threonine-protein kinase mTOR (Mus musculus) | pIC50 | < | 6.52
CCC(=O)N1CC=C(c2ccc(-n3c(=O)ccc4cnc5ccc(-c6cnc7ccccc7c6)cc5c43)cc2C(F)(F)F)CC1 | Serine/threonine-protein kinase mTOR (Mus musculus) | pIC50 | = | 7.52
CN(C)CCC(=O)N1CCN(c2ccc(Nc3ccnc4ccc(-c5cnc6ccccc6c5)cc34)cc2C(F)(F)F)CC1 | Serine/threonine-protein kinase mTOR (Mus musculus) | pIC50 | < | 6.52
O=C(O)N1CCN(c2ccc(Nc3ccnc4ccc(-c5cnc6ccccc6c5)cc34)cc2C(F)(F)F)CC1 | Serine/threonine-protein kinase mTOR (Mus musculus) | pIC50 | < | 6.52
CC(=O)N1CCN(c2ccc(-n3c(=O)ccc4cnc5ccc(-c6cnc7ccccc7c6)cc5c43)cc2C(F)(F)F)CC1 | Serine/threonine-protein kinase mTOR (Mus musculus) | pIC50 | = | 8.52
